Measurement Target: UniProt:Q9BY41
Sequence (Q9BY41 whole entry): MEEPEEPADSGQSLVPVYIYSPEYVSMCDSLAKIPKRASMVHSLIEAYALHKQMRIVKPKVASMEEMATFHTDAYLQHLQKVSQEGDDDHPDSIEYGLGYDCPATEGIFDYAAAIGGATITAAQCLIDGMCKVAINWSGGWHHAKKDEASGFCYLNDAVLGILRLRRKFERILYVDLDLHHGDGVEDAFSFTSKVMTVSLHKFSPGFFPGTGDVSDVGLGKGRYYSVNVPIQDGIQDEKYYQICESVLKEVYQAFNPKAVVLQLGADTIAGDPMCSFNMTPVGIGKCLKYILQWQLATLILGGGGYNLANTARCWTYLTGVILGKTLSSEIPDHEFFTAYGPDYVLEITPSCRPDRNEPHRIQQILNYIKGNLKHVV
Measurement Protocol: Inhibition of HDAC8 (unknown origin)
Recorded Endpoint: IC50

Recorded IC50, per entry:
[
  {
    "Smi": "C[C@]12CC[C@@H]3c4ccc(O)cc4CC[C@H]3[C@@H]1CC[C@@]2(O)c1cn(CCCCCCC(=O)NO)nn1",
    "Measurement Target": "UniProt:Q9BY41",
    "IC50": "4 µM"
  },
  {
    "Smi": "C[C@]12CC[C@@H]3c4ccc(O)cc4CC[C@H]3[C@@H]1CC[C@@]2(O)c1cn(CCCCCCCC(=O)NO)nn1",
    "Measurement Target": "UniProt:Q9BY41",
    "IC50": "0.45 µM"
  }
]

## Input Please report the recorded IC50 for C[C@]12CC[C@@H]3c4ccc(O)cc4CC[C@H]3[C@@H]1CC[C@@]2(O)c1cn(CCCCC(=O)NO)nn1 .
## Output 11 µM

---

Measurement Target: Histone deacetylase 4 (Homo sapiens, UniProt P56524)
Sequence (P56524 whole entry): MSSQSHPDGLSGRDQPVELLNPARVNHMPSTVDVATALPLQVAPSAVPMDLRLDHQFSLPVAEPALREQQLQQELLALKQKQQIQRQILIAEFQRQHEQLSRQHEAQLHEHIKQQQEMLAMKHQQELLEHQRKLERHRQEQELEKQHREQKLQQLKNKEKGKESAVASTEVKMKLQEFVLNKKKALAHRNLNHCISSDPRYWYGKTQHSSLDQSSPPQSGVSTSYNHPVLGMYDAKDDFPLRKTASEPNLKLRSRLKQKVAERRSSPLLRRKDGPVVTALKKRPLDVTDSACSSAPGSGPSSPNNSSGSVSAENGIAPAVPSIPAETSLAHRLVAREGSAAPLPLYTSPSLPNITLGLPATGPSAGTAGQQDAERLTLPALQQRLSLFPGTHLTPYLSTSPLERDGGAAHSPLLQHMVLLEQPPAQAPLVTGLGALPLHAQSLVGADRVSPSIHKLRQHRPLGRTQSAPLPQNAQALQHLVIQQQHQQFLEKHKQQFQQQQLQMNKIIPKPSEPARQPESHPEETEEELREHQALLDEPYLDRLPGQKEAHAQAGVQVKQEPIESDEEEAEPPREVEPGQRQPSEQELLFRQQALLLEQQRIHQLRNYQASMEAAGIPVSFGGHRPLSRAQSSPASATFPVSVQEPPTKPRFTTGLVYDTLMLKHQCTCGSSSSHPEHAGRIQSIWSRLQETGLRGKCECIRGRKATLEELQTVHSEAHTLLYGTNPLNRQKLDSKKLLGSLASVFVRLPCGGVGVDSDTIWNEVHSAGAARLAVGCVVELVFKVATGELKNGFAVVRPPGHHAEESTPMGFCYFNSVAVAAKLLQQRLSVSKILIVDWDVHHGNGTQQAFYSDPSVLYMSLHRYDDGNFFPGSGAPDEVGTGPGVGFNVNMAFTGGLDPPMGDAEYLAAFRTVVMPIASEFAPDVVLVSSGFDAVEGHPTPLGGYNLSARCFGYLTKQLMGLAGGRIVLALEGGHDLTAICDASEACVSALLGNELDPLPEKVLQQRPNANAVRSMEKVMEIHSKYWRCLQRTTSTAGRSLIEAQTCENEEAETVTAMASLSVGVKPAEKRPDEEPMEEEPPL
Measurement Protocol: Inhibition of HDAC4 (unknown origin)
Recorded Endpoint: pIC50
Scale: pIC50 equals -log10([C]), with [C] in mol/L.

Recorded pIC50, per entry:
[
  {
    "Molecule": "COCCOCC(=O)SCCCCCC(NC(=O)OCc1ccccc1)C(=O)Nc1cccc2cccnc12 (centres undefined)",
    "Measurement Target": "Histone deacetylase 4 (Homo sapiens, UniProt P56524)",
    "pIC50": 7.74
  },
  {
    "Molecule": "CC(=O)SCCCCCC(NC(=O)OCc1ccccc1)C(=O)Nc1cccc2cccnc12 (centres undefined)",
    "Measurement Target": "Histone deacetylase 4 (Homo sapiens, UniProt P56524)",
    "pIC50": 7.74
  },
  {
    "Molecule": "O=C(NC(CCCCCSSCCCCCC(NC(=O)OCc1ccccc1)C(=O)Nc1cccc2cccnc12)C(=O)Nc1cccc2cccnc12)OCc1ccccc1 (centres undefined)",
    "Measurement Target": "Histone deacetylase 4 (Homo sapiens, UniProt P56524)",
    "pIC50": 8.47
  }
]

Continue with the next molecule.
## Input Please report the recorded pIC50 for O=C(NC(CCCCCSSCCO)C(=O)Nc1cccc2cccnc12)OCc1ccccc1 (centres undefined) .
## Output 8.70

---

Reported IC50 values are given for each entry in this list.
Measurement Target: Polyamine deacetylase HDAC10 (Homo sapiens, UniProt Q969S8)
Sequence (Q969S8 whole entry): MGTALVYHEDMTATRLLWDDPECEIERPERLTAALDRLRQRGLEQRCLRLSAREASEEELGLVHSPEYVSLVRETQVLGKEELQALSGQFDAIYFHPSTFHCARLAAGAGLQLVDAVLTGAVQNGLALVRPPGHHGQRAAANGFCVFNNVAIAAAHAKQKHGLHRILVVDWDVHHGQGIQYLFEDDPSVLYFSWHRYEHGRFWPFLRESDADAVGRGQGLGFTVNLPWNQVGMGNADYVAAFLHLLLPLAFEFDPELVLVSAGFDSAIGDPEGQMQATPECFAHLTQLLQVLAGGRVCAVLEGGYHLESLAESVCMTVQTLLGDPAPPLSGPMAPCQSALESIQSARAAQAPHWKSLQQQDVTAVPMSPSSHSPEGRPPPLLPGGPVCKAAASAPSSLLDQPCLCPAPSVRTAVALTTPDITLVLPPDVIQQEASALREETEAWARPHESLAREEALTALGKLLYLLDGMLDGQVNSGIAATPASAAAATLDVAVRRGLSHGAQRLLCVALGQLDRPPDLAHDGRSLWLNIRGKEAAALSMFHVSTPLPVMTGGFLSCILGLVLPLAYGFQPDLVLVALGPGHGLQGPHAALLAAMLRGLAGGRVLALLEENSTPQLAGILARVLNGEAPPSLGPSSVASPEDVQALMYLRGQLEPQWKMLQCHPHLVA
Measurement Protocol: Inhibition of human HDAC10 using fluorogenic HDAC substrate

Recorded IC50, per entry:
[
  {
    "Compound": "O=C(NO)c1ccc(CN2c3ccccc3C[C@@H]3CCCCC[C@H]32)cc1",
    "IC50": "> 30 µM"
  },
  {
    "Compound": "O=C(NO)c1ccc(Cn2c3c(c4cc(F)ccc42)C[S+]([O-])CC3)cc1 (stereo not given)",
    "IC50": "6.4 µM"
  },
  {
    "Compound": "O=C(NO)c1ccc(Cn2c3c(c4cc(F)ccc42)CS(=O)(=O)CC3)cc1",
    "IC50": "5.9 µM"
  },
  {
    "Compound": "O=C(NO)c1ccc(Cn2c3c(c4cc(F)ccc42)CSCC3)cc1",
    "IC50": "21 µM"
  }
]

## Input # query: IC50 | item O=C(NO)c1ccc(Cn2c3c(c4ccccc42)CS(=O)(=O)CC3)cc1 | system: Polyamine deacetylase HDAC10 (Homo sapiens, UniProt Q969S8)
## Output 7.7 µM

## Input # query: IC50 | item O=C(NO)c1ccc(CN2c3ccccc3CCC[C@@H]3CCCC[C@H]32)cc1 | system: Polyamine deacetylase HDAC10 (Homo sapiens, UniProt Q969S8)
## Output 10 µM
